- Tested on: COLO 205 colon
- Protocol Summary: NCI tumour cell line growth inhibition, 48 h
Assign class by TGI: not lower than 5 µM means 1; lower than 5 µM means 0.

[[record]]
molecule = "Cc1ccc([N+]2=NC(c3ccc([N+](=O)[O-])cc3)=NN(c3ccccc3)C2)cc1"
qualitative_label = 1

[[record]]
molecule = "CCOC(=O)NC(=O)c1cn(CC(=O)NCC(=O)NCC(=O)N2CCN(CCn3c(C)nc(C(N)=O)c3N)CC2)c(=O)[nH]c1=O"
qualitative_label = 1

[[record]]
molecule = "O=S(Cc1cnc2ccccc2c1)c1nc2ccccc2nc1-c1cccs1 (centres undefined)"
qualitative_label = 1

[[record]]
molecule = "COc1cc2c(cc1OCCCOc1cc3c(cc1OC)C(=O)N1CC(F)(F)C[C@H]1C=N3)N=C[C@@H]1CC(F)(F)CN1C2=O"
qualitative_label = 0

[[record]]
molecule = "CC1OC1P(=O)(O)O (centres undefined)"
qualitative_label = 1

[[record]]
molecule = "CC(C)COC(=O)N1N=NC2C3CC(=O)C(O3)C21 (centres undefined)"
qualitative_label = 1

[[record]]
molecule = "O=C(NCCN1CCOCC1)Nc1nc2ccc(Sc3nnc4ccc(-c5ccc(F)cc5)nn34)cc2s1"
qualitative_label = 1

[[record]]
molecule = "Cc1cccc(C)c1NC(=O)C(=O)C(c1ccccc1Cl)S(=O)(=O)Cc1ccccc1Cl (centres undefined)"
qualitative_label = 1

[[record]]
molecule = "Nc1nc(Cl)cc(NCC2(CO)CC(CCCc3ccccc3)C2)n1 (centres undefined)"
qualitative_label = 1

[[record]]
molecule = "CCOC(=O)CC[C@H](NC(=O)c1ccc(CNc2nc3cc(C(F)(F)F)ccc3nc2C(=O)OCC)cc1)C(=O)OCC"
qualitative_label = 1

[[record]]
molecule = "O=C(N/C(=C\\NC1=NCCS1)C(=O)N1CSC[C@@H]1C(=O)O)c1ccccc1"
qualitative_label = 1

[[record]]
molecule = "c1cc2c(cc1NC1=NCCO1)CCCC2"
qualitative_label = 0

[[record]]
molecule = "O=C1/C(=N/N=C(c2ccccc2)c2ccccc2)c2ccccc2-c2ccccc21"
qualitative_label = 1

[[record]]
molecule = "O=S(Nc1ccccc1)c1ccccc1Oc1ccccc1 (centres undefined)"
qualitative_label = 1

[[record]]
molecule = "CSC1=C(C(=O)N(COCC[Si](C)(C)C)c2ccccc2Br)CCC(C(C)(C)C)C1 (centres undefined)"
qualitative_label = 1

[[record]]
molecule = "O=C1C2=C(C(=O)c3c(O)ccc(O)c31)N(c1cccnc1)Cc1ccccc1O2"
qualitative_label = 0

[[record]]
molecule = "NS(=O)(=O)c1ccc(C(=O)O)cc1"
qualitative_label = 1

[[record]]
molecule = "Cc1cc(NCCCNc2ccnc3cc(Cl)ccc23)nc(Nc2ccc(C(=O)N3CCCCC3)cc2)n1"
qualitative_label = 0

[[record]]
molecule = "N=C(N)SC(c1ccccc1)c1ccccc1"
qualitative_label = 1

[[record]]
molecule = "C=C1CC(COc2ccc3c(C)c(Cl)c(=O)oc3c2)(c2ccccc2)OC1=O (centres undefined)"
qualitative_label = 0

[[record]]
molecule = "C[C@]12CC[C@H](OC(=O)Cc3ccc(N(CCCl)CCCl)cc3)CC1CC[C@@H]1C2CC[C@]2(C)NC(=O)CCC12 (some centres undefined)"
qualitative_label = 1

[[record]]
molecule = "CCCCCCCC(=O)SCC/C=C/[C@@H]1CC(=O)NCc2cccc(n2)C2=N[C@@](C)(CS2)C(=O)N[C@@H](C(C)C)C(=O)O1"
qualitative_label = 0

[[record]]
molecule = "Nc1nc(N)c2c(CCc3ccc(C(=O)N[C@@H](CCC(=O)O)C(=O)O)cc3)ccnc2n1"
qualitative_label = 1

[[record]]
molecule = "C=CCNC(=O)ON1C(=O)CCC1=O"
qualitative_label = 1

[[record]]
molecule = "C=CC(C)CCC(C/C=C(\\C)CCCC(C)C)C(=C)CCCC(C)C (centres undefined)"
qualitative_label = 1

[[record]]
molecule = "C[C@@]1([C@H](OC(=O)c2cccc3ccccc23)C(N)=O)CO1"
qualitative_label = 1

[[record]]
molecule = "COc1cccc(-c2cc(C(=O)Nc3ccc(Cl)cc3)nc(N)n2)c1"
qualitative_label = 1

